// data source = the NTF2 design screens of Basanta et al. (2020)

assay: protease stability score; higher = more stable; yeast display proteolysis, trypsin and chymotrypsin;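 note: log10 excess protease needed over predicted unfolded state with 0 meaning unfolded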

sequence chain | protease stability score
DETKDTEAAERYLENFKTGDPKKLANQFDKNAKVVVGDNEIHGREELQRNNESFVKRVDHIDLQTVDMRGDKFRYQVVIKINGNSVIVNYSIVMHNGKFERNHVDPKDMDRLKQ | 0.363
DEKKLKELAEELVKADRTGNPDMIKKLGKPDVEFHVANVTMHGSEQVYKYYEKVQRQGNEVHIKRQEVRGDHVEVHYTVKVGGTEVEVTMRLHAKDHKVDKAEAHFNKEYLDHVKKG | 0.413
DEEKDQKLATDLSDVIKTGDKEKMVKMADPNARIIVGDRVYHGREVILRWVRTLRERVDRIQIDSYDARDGKVRIIFQVRFDGRTTKIDLVVQYDNGHAKKIEVREK | 0.075
DETAQEQAKKLFQARQTNDPDKVNNLLDENARVNIGDTSVQGREDASKEVERQHRESHQSVELKEVKVDGDHVELHYVLTKQENGKPDSNKASMNVQIHNGKAQDVQIQTSK | -0.35
DEDRYERLVKKAFEMIVKGNEEEVRKLLKPDVDYEYADHKFRGEEAAQFIVRLVQKVGAQAEVRRHKVEGNTATADFVYHDGDQTVQTRAEVTYEGDKLKQARVENTEEVKKLDHKG | 0.003
